Assay read-out MIC; system under study: Escherichia coli (ATCC 25922).

Take a look at these entries with their results.
[
  {
    "molecule": "O=C(O)c1cn(C2CC2)c2cc(N3CCNCC3)c(F)cc2c1=O [CIP, ciprofloxacin, reference compound]",
    "MIC": "< 0.125 µg/mL"
  },
  {
    "molecule": "CC(C)(O/N=C(\\C(=O)N[C@@H]1C(=O)N2C(C(=O)[O-])=C(C[n+]3ccccc3)CS[C@H]12)c1csc(N)n1)C(=O)O [CAZ, ceftazidime, reference compound]",
    "MIC": "0.5 µg/mL"
  }
]

# value of MIC, Escherichia coli (ATCC 25922), item O=C(COc1ccc(-c2nc3ccc(Cl)cc3[nH]2)cc1F)N1CCOCC1 = > 256 µg/mL

Result for CCN(CC)CCOc1ccc(-c2nc3ccc(F)cc3[nH]2)cc1F , tested on Escherichia coli (ATCC 25922), MIC: > 256 µg/mL

With Escherichia coli (ATCC 25922) as the test system, Fc1ccc2nc(-c3ccc(OCc4cn(CCN5CCOCC5)nn4)c(F)c3)[nH]c2c1 showed MIC of > 256 µg/mL

Bench note, Escherichia coli (ATCC 25922): c1ccc2[nH]c(-c3ccc(OCCN4CCOCC4)cc3)nc2c1 , MIC reads > 256 µg/mL

The molecule O=C(COc1ccc(-c2nc3ccccc3[nH]2)cc1)N1CCOCC1 , when measured on Escherichia coli (ATCC 25922), yielded MIC of > 256 µg/mL

Record c1ccc2[nH]c(-c3ccc(OCc4cn(CCN5CCOCC5)nn4)cc3)nc2c1 ; system Escherichia coli (ATCC 25922); MIC = 256 µg/mL

---

// reported MIC per item
Test system: Klebsiella pneumoniae (ATCC 27736)

[
  {
    "molecule": "Fc1cc(-c2nc3ccc(Cl)cc3[nH]2)ccc1OCCN1CCOCC1",
    "test.readout": "MIC",
    "value.reported": "> 256 µg/mL"
  },
  {
    "molecule": "c1ccc2[nH]c(-c3ccc(OCc4cn(CCN5CCOCC5)nn4)cc3)nc2c1",
    "test.readout": "MIC",
    "value.reported": "> 256 µg/mL"
  }
]

Simply: Clc1ccc2nc(-c3ccc(OCc4cn(CCN5CCOCC5)nn4)cc3)[nH]c2c1 , Klebsiella pneumoniae (ATCC 27736), MIC = > 256 µg/mL

Let me check: CC(C)(O/N=C(\C(=O)N[C@@H]1C(=O)N2C(C(=O)[O-])=C(C[n+]3ccccc3)CS[C@H]12)c1csc(N)n1)C(=O)O [CAZ, ceftazidime, reference compound] , system Klebsiella pneumoniae (ATCC 27736), measured MIC is 256 µg/mL

Measured MIC for this entry Fc1cc(-c2nc3ccccc3[nH]2)ccc1OCc1cn(CCN2CCOCC2)nn1 on Klebsiella pneumoniae (ATCC 27736): > 256 µg/mL

---

Consider molecules characterized by their MIC with Escherichia coli (ATCC 25922).

Answered examples (8):
[
  {
    "molecule": "Clc1ccc2nc(-c3ccc(OCCN4CCOCC4)cc3)[nH]c2c1 [Compound 16]",
    "MIC": "256 mg/L"
  },
  {
    "molecule": "CCN(CC)CCOc1ccc(-c2nc3ccc(Cl)cc3[nH]2)cc1 [Compound 15]",
    "MIC": "256 mg/L"
  },
  {
    "molecule": "Fc1cc(-c2nc3ccc(Cl)cc3[nH]2)ccc1OCc1cn(CCN2CCOCC2)nn1 [Compound 32]",
    "MIC": "> 256 mg/L"
  },
  {
    "molecule": "CCN(CC)CCOc1ccc(-c2nc3ccc(Cl)cc3[nH]2)cc1F [Compound 23]",
    "MIC": "256 mg/L"
  },
  {
    "molecule": "CCN(CC)CCOc1ccc(-c2nc3ccccc3[nH]2)cc1 [Compound 12]",
    "MIC": "> 256 mg/L"
  },
  {
    "molecule": "Clc1ccc2nc(-c3ccc(OCc4cn(CCN5CCOCC5)nn4)cc3)[nH]c2c1 [Compound 29]",
    "MIC": "> 256 mg/L"
  },
  {
    "molecule": "Fc1cc(-c2nc3ccccc3[nH]2)ccc1OCc1cn(CCN2CCOCC2)nn1 [Compound 31]",
    "MIC": "> 256 mg/L"
  },
  {
    "molecule": "Fc1ccc2nc(-c3ccc(OCc4cn(CCN5CCOCC5)nn4)cc3)[nH]c2c1 [Compound 30]",
    "MIC": "> 256 mg/L"
  }
]

Short answer on Escherichia coli (ATCC 25922) for O=C(COc1ccc(-c2nc3ccc(Cl)cc3[nH]2)cc1)N1CCOCC1 [Compound 17] , MIC: > 256 mg/L

Entry Fc1cc(-c2nc3ccc(Cl)cc3[nH]2)ccc1OCCN1CCOCC1 [Compound 24] : MIC on Escherichia coli (ATCC 25922) = > 256 mg/L

# value of MIC, Escherichia coli (ATCC 25922), item O=C(COc1ccc(-c2nc3ccc(F)cc3[nH]2)cc1F)N1CCOCC1 [Compound 27] = > 256 mg/L
